Entries and their protein stability index
B1: EHMT1 (parent)
chain: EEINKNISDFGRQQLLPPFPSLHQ

- Variants of: B1
- test description: protein stability index of a GFP-peptide fusion (GPS, HEK-293T) (PSI 1-6); higher = more stable;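 note: lentivirally expressed fusions sorted by FACS into six bins by GFP to DsRed ratio, PSI derived from sequencing read proportions per bin multiplied by bin number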
- experimental setup: c terminus: a fixed tail appended
No unit in the answer, please; the number alone is enough.

QUERY: Note protein stability index for the variant shown: "D9V"
RESULT: 2.31
